- test.protocol: qHTS assay to identify small molecule antagonists of the peroxisome proliferator-activated receptor delta (PPARd) signaling pathway - cell viability counter screen (AID 743213); also: % is scaled to controls: 0 for no effect and ±100 for the full control effect; nearly all actives have a fitted effect of over 50% in size
- particulars: PPARd-bla HEK293H viability, CellTiter-Glo luminescence, 17 h; series mostly up to 62 µM
Results filed as inconclusive are left out. The source made the active and inactive calls. Calls follow the shape of the dose curve; as a rule, active = well fitted cell-killing curve with a large enough effect in the repeat runs; inconclusive = weak or mixed curves; inactive = no such curve, though single readings can be large or run the other way.
endpoint: viability change, negative = cytotoxic

>>> result("CCN(CC)CC(=O)Nc1c(C)cccc1C")
"inactive"
>>> result("COC(=O)[C@@H]1[C@H]2C[C@H]3c4[nH]c5ccccc5c4CCN3C[C@@H]2CC[C@@H]1O")
"inactive"
>>> result("NC(CO)C(=O)NNCc1ccc(O)c(O)c1O (stereo not drawn)")
"inactive"
>>> result("COC(=O)CCc1ccc(OCC(O)CNC(C)C)cc1 (stereo not drawn)")
"inactive"
>>> result("CCCCCCN")
"inactive"
>>> result("O=C(CS(=O)Cc1ccco1)NC/C=C\\COc1cc(CN2CCCCC2)ccn1 (stereo not drawn)")
"inactive"
>>> result("Cc1cccc(C)c1NC(=O)c1ccccc1C(=O)O")
"inactive"
>>> result("Cc1cccc(OCC(O)CNC(C)(C)C)c1C (stereo not drawn)")
"inactive"
>>> result("N[C@@H](CCC(=O)Nc1ccc([N+](=O)[O-])cc1)C(=O)O")
"inactive"
>>> result("CC(C)C(=O)OCCc1ccccc1")
"inactive"
>>> result("Brc1ccc(-c2ccccc2)cc1")
"inactive"
>>> result("O=C1c2ccccc2C(=O)C1c1ccccc1")
"inactive"
>>> result("CN(C)CCOCCO")
"inactive"

* * *

- test.protocol: qHTS assay to identify small molecule antagonists of the estrogen related receptor signaling pathway with the pleiotropic PPARgamma coactivator (PGC) from Tox21 10K library - cell viability counter screen (AID 1224840); also: % is scaled to controls: 0 for no effect and ±100 for the full control effect; nearly all actives have a fitted effect of over 40% in size
- particulars: PGC/ERR reporter cells viability, CellTiter-Fluor, 17.5 h; series mostly up to 92.4 µM
- Description: National Center for Advancing Translational Sciences [NCATS] NIH Chemical Genomics Center [NCGC] U.S. Environmental Protection Agency [EPA] National Institutes of Environmental Health Sciences [NIEHS] National Toxicology Program [NTP] […] The PGC/ERR cells were dispensed at 2,000 cells/5 ul/well in 1536-well white plates using a Multidrop dispenser. […] After 30-minute incubation at 37 C/5% CO2, the fluorescence intensity in the plates was measured using a ViewLux plate reader.
Records with an inconclusive call do not appear. Active and inactive are the calls of the source. Calls come from the whole dose curve; as a rule, active = well fitted cell-killing curve with a large enough effect in the repeat runs (not every such curve was filed as active); inconclusive = weak or mixed curves, or effect the other way; inactive = no such curve, though single readings can be large or run the other way.
endpoint: viability change, negative = cytotoxic

>>> result("O=Cc1ccc(Cl)c(Cl)c1")
"inactive"
>>> result("CCOc1cc(NC(C)=O)ccc1C(=O)OC")
"inactive"
>>> result("COCCOCCOCCOCCO")
"inactive"
>>> result("CCCCCCOc1ccccc1C(N)=O")
"inactive"
>>> result("C=CCCCCCCCCCCCC")
"inactive"
>>> result("COP(=O)(OC)OC(c1ccc(Cl)cc1)P(=O)(OC)OC (stereo unspecified)")
"inactive"
>>> result("NS(=O)(=O)c1cc2c(cc1Cl)CN(C1CCCCC1)C2=O")
"inactive"
>>> result("CCCCN")
"inactive"
>>> result("C=C(C)C(=O)OCCNC(C)(C)C")
"inactive"
>>> result("O=C(OCc1ccccc1)C(=O)OCc1ccccc1")
"inactive"
>>> result("CCCCCCN")
"inactive"
>>> result("O=C(OCC(O)CO)c1ccccc1Nc1ccnc2c(C(F)(F)F)cccc12 (stereo unspecified)")
"inactive"
>>> result("COc1cc2c(cc1OC)C(=O)CC2")
"inactive"
>>> result("COCCOCCOCCOCCOCCO")
"inactive"
>>> result("C=C(C)C(=O)OCCOP(=O)(O)OCCOC(=O)C(=C)C")
"inactive"
>>> result("O=C(NCCc1c[nH]c2ccccc12)c1cccnc1")
"inactive"
>>> result("O=C(CS(=O)Cc1ccco1)NC/C=C\\COc1cc(CN2CCCCC2)ccn1 (stereo unspecified)")
"inactive"
>>> result("Cc1ccc2ccc(Cl)cc2n1")
"inactive"
>>> result("Cc1cc(C(C)(C)C)c(O)c(C)c1CC1=NCCN1")
"inactive"
>>> result("CN1C(C)(C)CCCC1(C)C")
"inactive"
>>> result("CC1=C(C(=O)O)N2C(=O)[C@@H](NC(=O)[C@H](N)c3ccc(O)cc3)[C@H]2SC1")
"inactive"
>>> result("CN(C)c1ccc(C=O)cc1")
"inactive"
>>> result("CCOC(=O)CC(=O)c1ccccc1")
"inactive"
>>> result("O=C(O)C(=O)Cc1ccccc1")
"inactive"
>>> result("Cc1cccc(C)c1NC(=O)c1ccccc1C(=O)O")
"inactive"
>>> result("CC(C)(C)c1nnc(NS(=O)(=O)c2ccc(N)cc2)s1")
"inactive"
>>> result("CN1CCN(CC(=O)N2c3ccccc3C(=O)Nc3cccnc32)CC1")
"8.41% [at 8.39 µM] (inactive)"
>>> result("c1ccc2c(c1)ccc1c3ccccc3ccc21")
"inactive"
>>> result("COC(=O)CCc1ccc(OCC(O)CNC(C)C)cc1 (stereo unspecified)")
"inactive"
>>> result("CC(C)NCC(O)COc1ccc(COCCOC(C)C)cc1 (stereo unspecified)")
"inactive"
>>> result("CCC(CC)CO")
"inactive"
>>> result("O=C1O[C@@H]2[C@@H](O)[C@H](O)O[C@@H]2[C@H]1O")
"inactive"
>>> result("CCCN1C[C@H](CSC)C[C@@H]2c3cccc4[nH]cc(c34)C[C@H]21")
"inactive"
>>> result("COc1ccc(S(=O)(=O)N2c3ccc(Cl)cc3[C@@](O)(c3ccccc3Cl)[C@H]2C(=O)N2CCC[C@@H]2C(N)=O)cc1OC")
"inactive"
>>> result("O=C1c2ccccc2C(=O)c2cc(S(=O)(=O)O)ccc21")
"inactive"
>>> result("BrCCCCCBr")
"inactive"
>>> result("C[C@@H](Oc1ccc(CNC(=O)c2cccnc2Oc2ccc3c(c2)OCO3)c(F)c1)C(=O)O")
"inactive"
>>> result("O=C(Nc1ccc(Cl)c(Cl)c1)C1CC1")
"inactive"
>>> result("COCCc1ccc(OCC2CO2)cc1 (stereo unspecified)")
"inactive"
>>> result("CCCC(=O)C(C)=O")
"inactive"
>>> result("On1nnc2ccccc21")
"inactive"
>>> result("CC(C)c1ccc2cc(C(C)C)ccc2c1")
"inactive"
>>> result("CC(=O)Nc1ccc(S(=O)(=O)Cl)cc1")
"inactive"
>>> result("CC(C)CC(=O)O")
"inactive"
>>> result("N[C@@H](COP(=O)(O)O)C(=O)O")
"2.06% [at 19 µM] (inactive)"
>>> result("COc1nccnc1NS(=O)(=O)c1ccc(N)cc1")
"inactive"
>>> result("CC(C)CCCC(C)(C)O")
"inactive"
>>> result("CC1COc2ccccc2N1 (stereo unspecified)")
"inactive"
>>> result("CC(C)=O")
"inactive"
>>> result("CCn1ccc(NS(=O)(=O)c2ccc(N)cc2)nc1=O")
"inactive"
>>> result("CCOC(=O)c1ccc(OC(=O)CCCCCN=C(N)N)cc1")
"inactive"
>>> result("CC(C)C(=O)OCCc1ccccc1")
"inactive"
>>> result("CC1=CCC(C(C)C)=CC1")
"inactive"
>>> result("CCCCCCCC/C=C\\CCCCCCCC(=O)OCCCC")
"-2.58% [at 19 µM] (inactive)"
>>> result("C[C@H](CCC(=O)O)[C@H]1CC[C@H]2[C@@H]3C(=O)C[C@@H]4CC(=O)CC[C@]4(C)[C@H]3CC(=O)[C@]12C")
"inactive"
>>> result("COc1cc(N)ccc1C")
"inactive"
